# Test system: U2OS
# protocol.details: Multiplex assay against U2OS
# Type: toxicity, cell-based
# settings: human, 24 h, 10 µM, compound concentration 10 uM, replicate 2
Non-standard residues stand in square brackets, D forms with d. Residues, ends and D or L forms follow the SMILES beside them.
This listing pairs compounds with measured Population Mitochondria Different-Phenotype (%).
quantity: Population Mitochondria Different-Phenotype (%)

compound	assay.target	quantitative.result
CSc1nc(NC2CCCC2)c([N+](=O)[O-])c(NC2CCCC2)n1	U2OS	2
OCCCNc1cc(-c2ccnc(Nc3cccc(Cl)c3)n2)ccn1	U2OS	54
COc1c(Nc2ccc(S(C)(=O)=O)nc2C)ncnc1OC1CCN(C(=O)OC(C)C)CC1	U2OS	4
COCCn1c(C)c(C)s/c1=N\C(=O)C1C(C)(C)C1(C)C	U2OS	1
O=c1nc2[nH]c3ccccc3nc-2c(=O)[nH]1	U2OS	4
COc1cc2nc(N3CCN(C(=O)c4ccco4)CC3)nc(N)c2cc1OC.Cl [PRAZOSIN HYDROCHLORIDE]	U2OS	5
CN1CCN2c3ccccc3Cc3ccccc3C2C1.Cl (stereo unspecified) [MIANSERIN HYDROCHLORIDE]	U2OS	3
Cc1cc(NC(=O)NCCN2CCC(O)(Cc3ccccc3)CC2)c2ccccc2n1	U2OS	1
Cc1cc(O)c(-c2ccc([C@@H](C)CN(C)C)cc2)c2c1[nH]c(=O)c1sccc12	U2OS	62
Cn1cc(C(=O)OCC2CCN(CCNS(C)(=O)=O)CC2)c2ccccc21	U2OS	8
N[C@](CC1c2ccccc2Oc2ccccc21)(C(=O)O)[C@H]1C[C@@H]1C(=O)O	U2OS	1
COc1cc2nc(N3CCN(C(=O)COc4c(OC)cccc4C(C)C)CC3)nc(N)c2cc1OC.Cl.Cl	U2OS	50
CCC(=O)OCC(=O)[C@@]1(OC(=O)CC)[C@@H](C)C[C@H]2[C@@H]3CCC4=CC(=O)C=C[C@]4(C)[C@@]3(Cl)[C@@H](O)C[C@@]21C [BECLOMETHASONE DIPROPIONATE]	U2OS	86
CCCCCCNC(=O)Nc1ccc(S(=O)(=O)Nc2ccc(CCNC[C@H](O)COc3ccc(O)cc3)cc2)cc1	U2OS	5
CC(C)C[C@@H]1NC(=O)[C@@H](C(C)C)NC(=O)[C@@H]2CCCN2C(=O)[C@@H](CC(=O)O)NC(=O)[C@@H](Cc2c[nH]c3ccccc23)NC1=O [BQ-123] (cyclo(L[dW][dD]P[dV]))	U2OS	8
Cc1sc2c(c1C)C(c1ccc(Cl)cc1)=N[C@H](CC(=O)OC(C)(C)C)c1nnc(C)n1-2	U2OS	25
C[C@@H]1CC(=O)Nc2cccc(-c3ccc4c(c3)c(-c3cnn(C)c3)nn4C)c2N1	U2OS	1
C=CCN1C[C@H](C(=O)N(CCCN(C)C)C(=O)NCC)C[C@@H]2c3cccc4[nH]cc(c34)C[C@H]21	U2OS	12
Cc1nn(C)c2nc(NNC(=O)Nc3cc(Cl)nc(Cl)c3)cc(C(C)C)c12	U2OS	51
COc1cc(OC2CCN(C(C)=O)CC2)ccc1C(=O)N1CCC(N2C(=O)OCc3ccccc32)CC1	U2OS	3
C[C@H](NC(=O)CNC(=O)c1cccc(Cl)c1)c1ccccc1	U2OS	2
COc1ccc2c(c1OCc1ccccc1)C[C@@H](C(=O)O)N(C(=O)C(c1ccccc1)c1ccccc1)C2	U2OS	1
Nc1nc(-c2ccco2)c2cnn(Cc3ccccc3F)c2n1	U2OS	0
CN1CCN(c2ccc(Nc3c4ccccc4nc4ccccc34)cc2)CC1.Cl.Cl.O	U2OS	100
CN(C)C/C=C/C(=O)Nc1ccc(C(=O)N2CCCC(Nc3ncc(Cl)c(-c4c[nH]c5ccccc45)n3)C2)cc1 (stereo unspecified)	U2OS	28
CCn1c(-c2nc3cc(C(=O)N4CCCC(N)C4)ccc3n2C)cc2ccccc21.Cl (stereo unspecified)	U2OS	53

Each recorded value in this set is attributed to ChEMBL document CHEMBL5058577.
